The reported numbers originate from the supplement of paper PMC9170038.

System: MS2 coat protein
ASSAY OVERVIEW: apparent KD of MS2 coat protein; designed switch direction (-1 OFF switch, 1 ON switch): -1; higher = weaker reporter binding
ASSAY SETUP: input ligand: microRNA oligo, concentration not stated
Please use YES whenever apparent KD of MS2 coat protein is not below 60 nM, and NO whenever it is.

GCAGCAUAGUCCAAAUAGGACAUACAUGAGGAUCACCCAUGUCAGGAUAUGGUCUGGAUUACAGGCCAGAAGGGACAAAGCUGC [Eli exng3 - 001] (Eterna round: R96, puzzle: Exclusion NG 3)    NO
CUUUAGUGAGGAUAUCGGUAGUAAUACAAUAGUAUUACUACUGAGAAGGCACAUGAGGAUCACCCAUGUUCCUC [Mat - Exclusion 4 - Mod of Omei - D82] (Eterna round: R96, puzzle: Exclusion 4)    NO
UUUUUAUAUGAAGGAUAUACUUAACAUGAGGAUCACCCAUGUGGUGUUGUGAGUGAGUGAGUUUAGUAGAAGGUCAAUUAUAUU [JMF's solution 13] (Eterna round: R96, puzzle: Exclusion NG 2)    YES
UUUAAGGGAAUUAAGAUCACAUGAGGAUCACCCAUGUAUAUAUAGGAUAUCAGCUCGAUUAGAGCUGAGAAGGAUAUAUACAUA [ExNG3/6-A1] (Eterna round: R96, puzzle: Exclusion NG 3)    YES
CAAAGACCGGCAGGAUAUUGACCCAGAACAUGAGGAUCACCCAUGUCAACAAGGUUGGACCAGGGCGAGAAGGGCCACGCCAAA [Eternabot solution 22] (Eterna round: R96, puzzle: Exclusion NG 2)    NO
UAACAUGUACAAGGAUAUCAGCACGUUUAGUGCUGAGAAGGUGUAACAUGAGGAUCACCCAUGUAGAUCAUUAAUUAAUUAAUU [ENG1/9-B2] (Eterna round: R96, puzzle: Exclusion NG 1)    YES
UAAUAAAGUGUGAGGAUAUGCUGGUCCAUAGAUCAGCAGAAGGCACAUGAGGAUCACCCAUGUAAUAUAUAAAU [Mat - Exclusion 4 - JL Mod - D57] (Eterna round: R96, puzzle: Brourd's mod of Exclusion 4)    NO
UUUUUACAUGAGGAUCACCCAUGUCAGGAUAUGCUUAUAUUUUAUUAUUUUAUUUUUUGCAGAAGGGACUAUUA [My solution] (Eterna round: R96, puzzle: Exclusion 1)    YES
UACCUGAGGCAAAGCUUUAGGUAAACAUGAGGAUCACCCAUGUAGGAUAUGGUAGGCUUUGCUUACCAGAAGGACAUGUUAAUU [Mat - Exclusion NG 3 - Mod of JL - D33] (Eterna round: R96, puzzle: Exclusion NG 3)    NO
AAUUAUUAUUGAGGAUAUCGUAUUGAAACAAUACGAGAAGGCGGUAUAAACAUGAGGAUCACCCAUGUGAGCCUGAUGCUUAUG [Ex NG1 #99] (Eterna round: R96, puzzle: Exclusion NG 1)    NO
UCUAUUUUGCGAGGAUAUCGACCAUUCCUCUUUACAUGAGGAUCACCCAUGUUCUUUUUCUACAACGAGAAGGCGCUCAUAGUU [JR_ExcNG2_Sub062] (Eterna round: R96, puzzle: Exclusion NG 2)    YES
AUCAGCUCGUCAGGAUAUACAUGCGUGCUUCGGCACGAAUUUAAGAUCACAUGAGGAUCACCCAUGUAGAAGGGACGAGCUGAU [ENG2/3-B3] (Eterna round: R96, puzzle: Exclusion NG 2)    YES
ACAGUACUGCAAGGAUAUCGUUCUAGUUUAUUACGAGAAGGUGCUUUAGUUAUUUCUUUGUGUUGACAUGAGGAUCACCCAUGU [JR_ExcNG1_Sub055] (Eterna round: R96, puzzle: Exclusion NG 1)    NO
UAUAUAUAGUAAGGAUAUGUAUUUAUUUAAUAAACAGAAGGUACUGACAUGAGGAUCACCCAUGUUUUAGUGUGGGCAUGUAGA [JMF's solution 19] (Eterna round: R96, puzzle: Exclusion NG 1)    YES
CAUGUCCAACGAGGAUAUGGGAAAGGAAGUGUACCAGAAGGCGUACGGACAUGAGGAUCACCCAUGUCGCGCGGCGCGAUGUGG [PowerStrip EXNG 1.1] (Eterna round: R96, puzzle: Exclusion NG 1)    NO
CCUUGACAUGAGGAUCACCCAUGUGAGGAUAUGAUGCGAUCGUCGAAAGACGAUAGCAUCAGAAGGCACAUAUG [Fiskers Ex 1 - 8] (Eterna round: R96, puzzle: Exclusion 1)    NO
